Measured pIC50 (UniProt P09252)
Sequence (P09252 whole entry): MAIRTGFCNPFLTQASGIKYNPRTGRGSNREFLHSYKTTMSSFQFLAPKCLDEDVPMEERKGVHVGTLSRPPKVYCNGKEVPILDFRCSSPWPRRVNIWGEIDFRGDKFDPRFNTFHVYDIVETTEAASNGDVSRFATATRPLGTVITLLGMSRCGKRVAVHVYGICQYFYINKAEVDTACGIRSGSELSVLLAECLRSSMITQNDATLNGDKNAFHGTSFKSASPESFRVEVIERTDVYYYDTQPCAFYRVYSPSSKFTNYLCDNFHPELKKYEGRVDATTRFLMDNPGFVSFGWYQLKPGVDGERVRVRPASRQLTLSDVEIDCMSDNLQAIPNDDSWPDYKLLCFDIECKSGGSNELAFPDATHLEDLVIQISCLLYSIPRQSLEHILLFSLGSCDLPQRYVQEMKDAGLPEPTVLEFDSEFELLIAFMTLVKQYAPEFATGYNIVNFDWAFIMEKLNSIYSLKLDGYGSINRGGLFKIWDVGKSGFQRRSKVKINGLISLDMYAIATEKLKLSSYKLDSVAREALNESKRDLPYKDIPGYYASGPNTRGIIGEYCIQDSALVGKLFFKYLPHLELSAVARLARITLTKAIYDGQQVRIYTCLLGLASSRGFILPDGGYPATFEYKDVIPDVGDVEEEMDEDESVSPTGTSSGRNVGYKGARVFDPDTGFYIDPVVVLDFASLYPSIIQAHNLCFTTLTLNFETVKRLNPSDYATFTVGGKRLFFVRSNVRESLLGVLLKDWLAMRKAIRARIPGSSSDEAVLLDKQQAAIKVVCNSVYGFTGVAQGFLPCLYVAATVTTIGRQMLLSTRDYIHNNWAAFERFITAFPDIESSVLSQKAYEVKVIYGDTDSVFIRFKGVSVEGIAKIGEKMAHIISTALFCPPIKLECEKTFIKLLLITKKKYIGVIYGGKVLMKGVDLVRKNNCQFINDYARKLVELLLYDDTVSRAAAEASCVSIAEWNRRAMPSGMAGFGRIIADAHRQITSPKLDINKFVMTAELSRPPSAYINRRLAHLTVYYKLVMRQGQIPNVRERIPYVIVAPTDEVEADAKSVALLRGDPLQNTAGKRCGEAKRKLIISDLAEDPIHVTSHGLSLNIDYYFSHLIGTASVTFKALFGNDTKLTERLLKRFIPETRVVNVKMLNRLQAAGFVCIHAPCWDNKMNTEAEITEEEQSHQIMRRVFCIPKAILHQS
The value called pIC50 is obtained by taking minus log10 of the concentration in mol/L.

Annotate the molecule O=C(NCc1ccc(Cl)cc1)c1cc(O[C@H]2CCN3C(=O)OC[C@@H]3C2)c(-c2ccn(C(F)F)n2)cn1 [Compound 26] with its measured pIC50. 7.86

Annotate the molecule Cc1cnn(-c2cnc(C(=O)NCc3ccc(Cl)cc3)cc2O[C@H]2CCN3C(=O)OC[C@@H]3C2)c1 [Compound 105] with its measured pIC50. 6.86

Annotate the molecule COC1CN(c2cnc(C(=O)NCc3ccc(Cl)cc3)cc2O[C@H]2CCN3C(=O)OC[C@@H]3C2)C1 [Compound 120] with its measured pIC50. 8.59

Annotate the molecule CC(=O)N1CCC(Oc2cc(C(=O)NCc3ccc(Cl)cc3)ncc2C#Cc2cc(C)ccn2)CC1 [Compound 76] with its measured pIC50. 6.78

Annotate the molecule CC(=O)N1CCC(Oc2cc(C(=O)NCc3ccc(Cl)cc3)ncc2/C=C/CC(C)O)CC1 (stereo not drawn) [Compound 72] with its measured pIC50. 7.29

Annotate the molecule Cn1cc(-c2cnc(C(=O)NCc3ccc(C#N)cc3)cc2O[C@H]2CCN3C(=O)OC[C@@H]3C2)cn1 (racemic) [Compound 95] with its measured pIC50. 7.62

Annotate the molecule O=C(NCc1ccc(Cl)cc1)c1cc(O[C@H]2CCN3C(=O)CC[C@@H]3C2)c(-c2cnn(C(F)F)c2)cn1 [Compound 166] with its measured pIC50. 8.07

Annotate the molecule CC(=O)N1CCC(Oc2cc(C)nc(C(=O)NCc3ccc(Cl)cc3)c2)CC1 [Compound 101] with its measured pIC50. 5.89

Annotate the molecule N#Cc1cnc(C(=O)NCc2ccc(Cl)cc2)cc1O[C@H]1CCN2C(=O)OC[C@@H]2C1 [Compound 127] with its measured pIC50. 7.55
